Record form. Attribute: IC50. Fill in for each entry.
METHOD NOTES: Antitumor activity against human MCF7/ADM cells assessed as cell viability incubated for 24 hrs by MTT assay
Format: functional, cell-based
Numbers only, in µM.

These recorded examples may help you get a feel for the data.
COMPOUND | RECORDED MEASUREMENT
Cc1cc(C(C)Nc2ccccc2C(=O)NCCOCCOCCC(=O)N[C@H](C(=O)N2C[C@H](O)C[C@H]2C(=O)NCc2ccc(-c3scnc3C)cc2)C(C)(C)C)c2nc(N3CCOCC3)cc(=O)n2c1 (stereo partly drawn) | 30.2
Cc1cc(C(C)Nc2ccccc2C(=O)NCCCCCCC(=O)N[C@H](C(=O)N2C[C@H](O)C[C@H]2C(=O)NCc2ccc(-c3scnc3C)cc2)C(C)(C)C)c2nc(N3CCOCC3)cc(=O)n2c1 (stereo partly drawn) | 38.7

query: Supply IC50 value. Item: Cc1cc(C(C)Nc2ccccc2)c2nc(N3CCOCC3)cc(=O)n2c1 (stereo not drawn)
result: 50.8

###

TEST SYSTEM: von Hippel-Lindau disease tumor suppressor/Phosphatidylinositol 4,5-bisphosphate 3-kinase catalytic subunit beta isoform (Homo sapiens, UniProt P42338+P40337)
Sequence (P40337 whole entry, looked up, canonical isoform): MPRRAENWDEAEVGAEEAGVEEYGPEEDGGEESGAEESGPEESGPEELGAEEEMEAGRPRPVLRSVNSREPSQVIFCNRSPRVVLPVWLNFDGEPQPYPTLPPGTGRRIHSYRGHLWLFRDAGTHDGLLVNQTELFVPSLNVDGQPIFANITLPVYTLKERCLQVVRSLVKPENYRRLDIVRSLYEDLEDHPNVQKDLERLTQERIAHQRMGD
Sequence (P42338 whole entry, looked up, canonical isoform): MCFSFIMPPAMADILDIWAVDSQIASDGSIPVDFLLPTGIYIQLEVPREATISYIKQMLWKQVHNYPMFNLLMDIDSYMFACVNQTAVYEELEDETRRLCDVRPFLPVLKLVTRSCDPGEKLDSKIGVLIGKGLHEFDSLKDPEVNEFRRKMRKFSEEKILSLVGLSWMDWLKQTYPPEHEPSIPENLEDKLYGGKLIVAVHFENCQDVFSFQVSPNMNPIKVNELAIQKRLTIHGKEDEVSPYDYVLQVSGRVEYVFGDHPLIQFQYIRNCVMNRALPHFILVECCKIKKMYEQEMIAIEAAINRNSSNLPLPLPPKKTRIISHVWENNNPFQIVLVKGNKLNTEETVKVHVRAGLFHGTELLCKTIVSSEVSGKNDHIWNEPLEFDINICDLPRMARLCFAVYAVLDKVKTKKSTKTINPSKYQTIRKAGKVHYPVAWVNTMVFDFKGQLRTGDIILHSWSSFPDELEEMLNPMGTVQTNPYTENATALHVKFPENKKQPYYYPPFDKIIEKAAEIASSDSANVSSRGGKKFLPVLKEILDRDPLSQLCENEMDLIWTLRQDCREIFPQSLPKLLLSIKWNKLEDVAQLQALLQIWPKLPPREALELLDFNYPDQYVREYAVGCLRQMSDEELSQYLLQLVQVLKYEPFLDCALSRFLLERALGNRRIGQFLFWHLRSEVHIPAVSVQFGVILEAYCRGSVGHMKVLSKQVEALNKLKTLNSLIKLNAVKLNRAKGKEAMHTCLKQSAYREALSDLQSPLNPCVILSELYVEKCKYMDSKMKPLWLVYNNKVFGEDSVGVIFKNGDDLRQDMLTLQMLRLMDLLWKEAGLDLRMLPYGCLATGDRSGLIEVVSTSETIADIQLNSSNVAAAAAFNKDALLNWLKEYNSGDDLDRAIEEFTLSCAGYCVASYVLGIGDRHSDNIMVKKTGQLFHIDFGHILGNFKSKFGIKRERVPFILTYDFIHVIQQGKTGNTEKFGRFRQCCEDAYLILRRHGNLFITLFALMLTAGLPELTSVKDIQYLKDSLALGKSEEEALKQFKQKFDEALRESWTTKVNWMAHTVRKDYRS
METHOD NOTES: PROTAC activity at PI3K-p110beta/VHL in human MCF7/ADM cells assessed as induction of PI3K-p110beta degradation at 2.5 uM incubated for 24 hrs by Western blot analysis
Type: cell-based
Activity calls are given as the source filed them. The rule behind the calls is not given here.
QUANTITY: Activity

These recorded examples may help you get a feel for the data.
COMPOUND | Activity
Cc1cc(C(C)Nc2ccccc2C(=O)NCCCC(=O)N[C@H](C(=O)N2C[C@H](O)C[C@H]2C(=O)NCc2ccc(-c3scnc3C)cc2)C(C)(C)C)c2nc(N3CCOCC3)cc(=O)n2c1 (stereo not given in full) | Active
Cc1cc(C(C)Nc2ccccc2C(=O)NCCCCCCCCCCC(=O)N[C@H](C(=O)N2C[C@H](O)C[C@H]2C(=O)NCc2ccc(-c3scnc3C)cc2)C(C)(C)C)c2nc(N3CCOCC3)cc(=O)n2c1 (stereo not given in full) | Active
Cc1cc(C(C)Nc2ccccc2C(=O)NCCCCCCCC(=O)N[C@H](C(=O)N2C[C@H](O)C[C@H]2C(=O)NCc2ccc(-c3scnc3C)cc2)C(C)(C)C)c2nc(N3CCOCC3)cc(=O)n2c1 (stereo not given in full) | Active
Cc1cc(C(C)Nc2ccccc2C(=O)NCCCCCC(=O)N[C@H](C(=O)N2C[C@H](O)C[C@H]2C(=O)NCc2ccc(-c3scnc3C)cc2)C(C)(C)C)c2nc(N3CCOCC3)cc(=O)n2c1 (stereo not given in full) | Active

// switching to the query compound
query: Supply Activity value. Item: Cc1cc(C(C)Nc2ccccc2C(=O)NCCC(=O)N[C@H](C(=O)N2C[C@H](O)C[C@H]2C(=O)NCc2ccc(-c3scnc3C)cc2)C(C)(C)C)c2nc(N3CCOCC3)cc(=O)n2c1 (stereo not given in full)
result: Active

###

TEST SYSTEM: von Hippel-Lindau disease tumor suppressor/Phosphatidylinositol 4,5-bisphosphate 3-kinase catalytic subunit beta isoform (Homo sapiens, UniProt P42338+P40337)
METHOD NOTES: PROTAC activity at PI3K-p110beta/VHL in human A549/DDP cells assessed as induction of PI3K-p110beta degradation at 25 uM incubated for 24 hrs by Western blot analysis
Type: cell-based
The source made the active and inactive calls. The calls are words filed in the database; no cut-off is given here.
QUANTITY: Activity

These recorded examples may help you get a feel for the data.
COMPOUND | Activity
Cc1cc(C(C)Nc2ccccc2C(=O)NCCCCCC(=O)N[C@H](C(=O)N2C[C@H](O)C[C@H]2C(=O)NCc2ccc(-c3scnc3C)cc2)C(C)(C)C)c2nc(N3CCOCC3)cc(=O)n2c1 (stereo not given in full) | Active
Cc1cc(C(C)Nc2ccccc2C(=O)NCCCCCCCC(=O)N[C@H](C(=O)N2C[C@H](O)C[C@H]2C(=O)NCc2ccc(-c3scnc3C)cc2)C(C)(C)C)c2nc(N3CCOCC3)cc(=O)n2c1 (stereo not given in full) | Active
Cc1cc(C(C)Nc2ccccc2C(=O)NCCCC(=O)N[C@H](C(=O)N2C[C@H](O)C[C@H]2C(=O)NCc2ccc(-c3scnc3C)cc2)C(C)(C)C)c2nc(N3CCOCC3)cc(=O)n2c1 (stereo not given in full) | Active
Cc1cc(C(C)Nc2ccccc2C(=O)NCCCCCCCCCCC(=O)N[C@H](C(=O)N2C[C@H](O)C[C@H]2C(=O)NCc2ccc(-c3scnc3C)cc2)C(C)(C)C)c2nc(N3CCOCC3)cc(=O)n2c1 (stereo not given in full) | Active

query: Supply Activity value. Item: Cc1cc(C(C)Nc2ccccc2C(=O)NCCC(=O)N[C@H](C(=O)N2C[C@H](O)C[C@H]2C(=O)NCc2ccc(-c3scnc3C)cc2)C(C)(C)C)c2nc(N3CCOCC3)cc(=O)n2c1 (stereo not given in full)
result: Active

###

TEST SYSTEM: von Hippel-Lindau disease tumor suppressor/Phosphatidylinositol 4,5-bisphosphate 3-kinase catalytic subunit beta isoform (Homo sapiens, UniProt P42338+P40337)
METHOD NOTES: PROTAC activity at PI3K-p110beta/VHL in human A549/DDP cells assessed as induction of PI3K-p110beta degradation at 2.5 uM incubated for 24 hrs by Western blot analysis
Assay type: cell-based
Calls of active or inactive are those of the source. No cut-off for these calls is given here.
QUANTITY: Activity

These recorded examples may help you get a feel for the data.
COMPOUND | QUANTITY | RECORDED MEASUREMENT
Cc1cc(C(C)Nc2ccccc2C(=O)NCCCCCC(=O)N[C@H](C(=O)N2C[C@H](O)C[C@H]2C(=O)NCc2ccc(-c3scnc3C)cc2)C(C)(C)C)c2nc(N3CCOCC3)cc(=O)n2c1 (stereo not given in full) | Activity | Active
Cc1cc(C(C)Nc2ccccc2C(=O)NCCCCCCCC(=O)N[C@H](C(=O)N2C[C@H](O)C[C@H]2C(=O)NCc2ccc(-c3scnc3C)cc2)C(C)(C)C)c2nc(N3CCOCC3)cc(=O)n2c1 (stereo not given in full) | Activity | Active
Cc1cc(C(C)Nc2ccccc2C(=O)NCCC(=O)N[C@H](C(=O)N2C[C@H](O)C[C@H]2C(=O)NCc2ccc(-c3scnc3C)cc2)C(C)(C)C)c2nc(N3CCOCC3)cc(=O)n2c1 (stereo not given in full) | Activity | Active
Cc1cc(C(C)Nc2ccccc2C(=O)NCCCCCCCCCCC(=O)N[C@H](C(=O)N2C[C@H](O)C[C@H]2C(=O)NCc2ccc(-c3scnc3C)cc2)C(C)(C)C)c2nc(N3CCOCC3)cc(=O)n2c1 (stereo not given in full) | Activity | Active

// switching to the query compound
query: Supply Activity value. Item: Cc1cc(C(C)Nc2ccccc2C(=O)NCCCC(=O)N[C@H](C(=O)N2C[C@H](O)C[C@H]2C(=O)NCc2ccc(-c3scnc3C)cc2)C(C)(C)C)c2nc(N3CCOCC3)cc(=O)n2c1 (stereo not given in full)
result: Active

###

Test system: A549/CDDP
METHOD NOTES: Antitumor activity against human A549/DDP cells assessed as cell viability incubated for 24 hrs by MTT assay
Type: functional, cell-based
Record form. Attribute: pIC50. Fill in for each entry.
Numbers only, as −log10 of the molar value.

These recorded examples may help you get a feel for the data.
MOLECULE | QUANTITY | RECORDED MEASUREMENT
Cc1cc(C(C)Nc2ccccc2C(=O)NCCOCCOCCC(=O)N[C@H](C(=O)N2C[C@H](O)C[C@H]2C(=O)NCc2ccc(-c3scnc3C)cc2)C(C)(C)C)c2nc(N3CCOCC3)cc(=O)n2c1 (stereo partly drawn) | pIC50 | 4.37
Cc1cc(C(C)Nc2ccccc2C(=O)NCCCCCCC(=O)N[C@H](C(=O)N2C[C@H](O)C[C@H]2C(=O)NCc2ccc(-c3scnc3C)cc2)C(C)(C)C)c2nc(N3CCOCC3)cc(=O)n2c1 (stereo partly drawn) | pIC50 | 4.41

query: Supply pIC50 value. Item: Cc1cc(C(C)Nc2ccccc2)c2nc(N3CCOCC3)cc(=O)n2c1 (stereo not drawn)
result: 4.24
